B1: NELF-E aptamer (parent)
chain: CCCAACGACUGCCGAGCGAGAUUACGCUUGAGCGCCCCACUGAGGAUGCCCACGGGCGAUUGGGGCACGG

# Variants of: B1
# EXPERIMENT_DESCRIPTION: HiTS-RAP
# STUDY_CONDITIONS: with NELF-E (Drosophila)

| MUTATION_ID | Kd (nM) |
| --- | --- |
| C9G G14A | 6.55 |
| U29A U41G | 6.07 |
| U10G G11U | 5.48 |
| A5U G7A | 6.51 |
| A8G C9U | 5.53 |
| A8G G56A | 10 |
| C6G G45A | 91 |
| C53G G54U | 4.24 |
| A5G G64A | 8.07 |
| A8U C36U | 8.33 |
| A8U G55A | 8.25 |
| C6G A15U | 6.24 |
| A4U C9U | 5.8 |
| U29G A39G | 7.69 |
| C13U G54A | 8.87 |
| A24G C49U | 13.4 |
| A24G C50U | 9.69 |
| A5U C13U | 7.12 |
